assay: in vitro; details: human
Assay metric: EC50 at 3 days

CC(=O)O/N=C1\C(=O)N(Cc2cc(Cl)ccc2Cl)c2ccc(Cl)cc21 [LDN-57444, reference compound] = ~9.2 µM

====

Target: UCHL5 (Homo sapiens, UniProt Q9Y5K5)
Sequence (Q9Y5K5 1-329): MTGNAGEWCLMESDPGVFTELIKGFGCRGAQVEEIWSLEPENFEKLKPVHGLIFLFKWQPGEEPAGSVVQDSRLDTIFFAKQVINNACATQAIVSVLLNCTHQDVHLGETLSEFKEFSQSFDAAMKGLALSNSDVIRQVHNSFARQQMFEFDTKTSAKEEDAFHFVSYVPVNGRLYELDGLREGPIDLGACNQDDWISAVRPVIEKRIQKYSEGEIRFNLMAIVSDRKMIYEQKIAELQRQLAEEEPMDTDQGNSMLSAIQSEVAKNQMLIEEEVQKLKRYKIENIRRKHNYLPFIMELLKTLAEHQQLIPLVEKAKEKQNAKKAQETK
pIC50: −log10 of the molar value.
Assay metric: pIC50

N#CN1CCC[C@@H]1C(=O)N1CCc2c(-c3c[nH]c4ncccc34)cccc21 = < 5.00
N#CN1CCC[C@H]1C(=O)N1CCc2c(-c3c[nH]c4ncccc34)cccc21 = < 5.00
CC(=O)O/N=C1\C(=O)N(Cc2cc(Cl)ccc2Cl)c2ccc(Cl)cc21 [LDN-57444, reference compound] = < 5.00

====

biological target: UCHL1 (Homo sapiens, UniProt P09936); assay: biochemical; conditions: UCHL1 IC50 (FP), UCHL1 5 nM, 30 min preincubation, Ub-Lys-TAMRA 50 nM; bound = maximum assay concentration
Sequence (P09936 whole entry): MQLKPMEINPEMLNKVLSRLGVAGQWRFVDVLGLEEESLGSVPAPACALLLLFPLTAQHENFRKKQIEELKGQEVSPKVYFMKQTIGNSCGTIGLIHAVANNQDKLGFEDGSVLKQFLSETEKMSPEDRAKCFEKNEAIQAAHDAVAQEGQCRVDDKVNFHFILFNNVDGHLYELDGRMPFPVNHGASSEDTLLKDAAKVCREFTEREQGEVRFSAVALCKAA
Assay metric: IC50

N#CN1CCC[C@@H]1C(=O)N1CCc2c(-c3c[nH]c4ncccc34)cccc21 = > 100 µM

====

target: USP22 (Homo sapiens)
Sequence (Q9UPT9 whole entry, species assumed): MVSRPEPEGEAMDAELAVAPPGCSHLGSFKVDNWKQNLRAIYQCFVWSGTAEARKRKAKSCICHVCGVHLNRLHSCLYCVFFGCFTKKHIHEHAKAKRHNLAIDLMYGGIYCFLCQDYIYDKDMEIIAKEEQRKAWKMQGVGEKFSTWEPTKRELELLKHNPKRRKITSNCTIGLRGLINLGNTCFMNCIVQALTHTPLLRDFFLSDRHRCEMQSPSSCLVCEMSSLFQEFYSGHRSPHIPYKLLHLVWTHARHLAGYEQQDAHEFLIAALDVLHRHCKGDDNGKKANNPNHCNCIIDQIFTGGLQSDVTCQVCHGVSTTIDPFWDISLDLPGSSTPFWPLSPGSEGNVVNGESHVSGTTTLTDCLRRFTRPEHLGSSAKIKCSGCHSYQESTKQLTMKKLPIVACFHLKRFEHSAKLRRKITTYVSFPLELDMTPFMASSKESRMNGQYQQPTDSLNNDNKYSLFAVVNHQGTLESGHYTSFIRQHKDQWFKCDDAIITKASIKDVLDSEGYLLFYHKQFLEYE
Sequence (Q14CW9 whole entry partner, species assumed): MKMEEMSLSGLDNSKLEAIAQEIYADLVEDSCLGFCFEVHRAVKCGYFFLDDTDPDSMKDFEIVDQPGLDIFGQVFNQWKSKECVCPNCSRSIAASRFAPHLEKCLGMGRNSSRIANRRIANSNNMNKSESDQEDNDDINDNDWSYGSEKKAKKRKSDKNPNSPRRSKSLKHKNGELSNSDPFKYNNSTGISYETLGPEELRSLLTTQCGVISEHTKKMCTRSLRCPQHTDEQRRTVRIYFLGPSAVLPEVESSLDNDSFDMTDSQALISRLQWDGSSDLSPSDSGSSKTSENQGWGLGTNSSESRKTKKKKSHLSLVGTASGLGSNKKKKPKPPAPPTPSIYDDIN
Sequence (Q9NPA8 whole entry partner, species assumed): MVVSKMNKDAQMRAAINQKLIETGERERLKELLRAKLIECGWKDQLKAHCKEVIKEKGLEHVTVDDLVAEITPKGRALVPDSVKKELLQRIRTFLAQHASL
Assay metric: IC50

CC(=O)O/N=C1\C(=O)N(Cc2cc(Cl)ccc2Cl)c2ccc(Cl)cc21 [LDN-57444, reference compound] = > 10 µM
N#CN1CCC[C@@H]1C(=O)N1CCc2c(-c3c[nH]c4ncccc34)cccc21 = > 10 µM
N#CN1CCC[C@H]1C(=O)N1CCc2c(-c3c[nH]c4ncccc34)cccc21 = > 10 µM
C#Cc1cnc2[nH]cc(-c3cccc4c3CCN4C(=O)[C@@H]3CCCN3C#N)c2c1 = > 10 µM

====

molecular target: USP10 (Homo sapiens, UniProt Q14694)
Sequence (Q14694 whole entry): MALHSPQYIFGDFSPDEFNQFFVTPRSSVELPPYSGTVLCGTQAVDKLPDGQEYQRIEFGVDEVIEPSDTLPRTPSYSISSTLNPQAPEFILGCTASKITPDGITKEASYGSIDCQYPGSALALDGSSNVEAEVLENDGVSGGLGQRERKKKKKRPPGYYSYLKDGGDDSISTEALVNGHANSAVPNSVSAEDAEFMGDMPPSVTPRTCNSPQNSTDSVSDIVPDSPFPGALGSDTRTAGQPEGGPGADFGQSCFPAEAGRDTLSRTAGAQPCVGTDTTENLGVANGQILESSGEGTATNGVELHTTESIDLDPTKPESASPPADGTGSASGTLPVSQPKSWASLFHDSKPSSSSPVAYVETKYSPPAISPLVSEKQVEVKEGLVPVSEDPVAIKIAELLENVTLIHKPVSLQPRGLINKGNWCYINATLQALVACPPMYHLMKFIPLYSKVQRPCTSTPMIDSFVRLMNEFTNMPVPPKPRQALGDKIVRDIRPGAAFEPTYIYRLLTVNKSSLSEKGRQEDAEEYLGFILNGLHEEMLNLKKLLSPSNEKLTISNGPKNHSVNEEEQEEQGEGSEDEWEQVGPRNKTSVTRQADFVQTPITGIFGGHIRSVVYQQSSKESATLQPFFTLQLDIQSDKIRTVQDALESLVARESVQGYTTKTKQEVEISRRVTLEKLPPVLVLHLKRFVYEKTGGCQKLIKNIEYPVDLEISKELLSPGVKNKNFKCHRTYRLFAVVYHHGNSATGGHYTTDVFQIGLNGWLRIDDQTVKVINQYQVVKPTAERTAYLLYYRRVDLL
pIC50: −log10 of the molar value.
Assay metric: pIC50

N#CN1CCC[C@@H]1C(=O)N1CCc2c(-c3c[nH]c4ncccc34)cccc21 [Compound 3] = < 5.00
CC(=O)O/N=C1\C(=O)N(Cc2cc(Cl)ccc2Cl)c2ccc(Cl)cc21 [LDN-57444, reference compound] = < 5.00
N#CN1CCC[C@H]1C(=O)N1CCc2c(-c3c[nH]c4ncccc34)cccc21 [Compound 1] = < 5.00

====

Molecular target: USP8 (Homo sapiens, UniProt P40818)
Sequence (P40818 1-1118): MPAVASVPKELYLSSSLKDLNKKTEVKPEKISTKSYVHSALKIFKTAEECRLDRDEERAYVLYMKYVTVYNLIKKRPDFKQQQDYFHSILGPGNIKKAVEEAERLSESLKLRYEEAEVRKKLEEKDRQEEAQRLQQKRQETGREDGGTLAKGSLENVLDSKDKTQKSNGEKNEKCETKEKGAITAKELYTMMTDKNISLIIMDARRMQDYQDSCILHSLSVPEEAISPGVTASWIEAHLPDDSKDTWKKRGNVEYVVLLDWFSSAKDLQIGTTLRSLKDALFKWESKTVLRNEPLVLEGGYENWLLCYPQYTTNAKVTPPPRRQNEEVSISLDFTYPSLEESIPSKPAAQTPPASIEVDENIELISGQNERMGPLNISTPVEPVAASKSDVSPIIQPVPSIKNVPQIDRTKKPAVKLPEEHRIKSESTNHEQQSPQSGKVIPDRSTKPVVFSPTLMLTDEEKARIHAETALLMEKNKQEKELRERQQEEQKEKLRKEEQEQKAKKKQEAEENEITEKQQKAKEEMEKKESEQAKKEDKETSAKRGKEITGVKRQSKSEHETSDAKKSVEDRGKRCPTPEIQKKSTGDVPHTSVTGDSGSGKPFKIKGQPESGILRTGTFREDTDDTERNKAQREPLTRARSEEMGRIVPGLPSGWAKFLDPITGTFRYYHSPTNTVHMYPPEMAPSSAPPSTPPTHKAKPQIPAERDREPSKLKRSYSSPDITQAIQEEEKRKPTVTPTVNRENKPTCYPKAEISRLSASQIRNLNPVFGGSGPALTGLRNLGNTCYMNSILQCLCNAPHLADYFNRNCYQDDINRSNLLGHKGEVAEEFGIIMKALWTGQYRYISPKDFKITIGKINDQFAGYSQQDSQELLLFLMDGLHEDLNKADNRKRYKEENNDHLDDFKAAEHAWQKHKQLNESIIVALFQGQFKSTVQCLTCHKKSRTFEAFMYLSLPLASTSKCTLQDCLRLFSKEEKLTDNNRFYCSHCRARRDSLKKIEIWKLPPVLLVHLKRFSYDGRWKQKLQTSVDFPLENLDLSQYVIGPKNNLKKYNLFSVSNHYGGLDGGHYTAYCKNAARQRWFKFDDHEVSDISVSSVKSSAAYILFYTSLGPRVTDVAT
Assay metric: IC50

N#CN1CCC[C@@H]1C(=O)N1CCc2c(-c3c[nH]c4ncccc34)cccc21 = > 10 µM
N#CN1CCC[C@H]1C(=O)N1CCc2c(-c3c[nH]c4ncccc34)cccc21 = > 10 µM
CC(=O)O/N=C1\C(=O)N(Cc2cc(Cl)ccc2Cl)c2ccc(Cl)cc21 [LDN-57444, reference compound] = > 10 µM

These data points were gathered from paper PMC7366380.
